IC50 values recorded for Acetylcholinesterase (Electrophorus electricus, UniProt O42275)

| sample_smiles | unit_abbreviation | IC50 |
| --- | --- | --- |
| COc1cc(/C=C/C(=O)N2CCC(Cc3ccccc3)CC2)ccc1OCCCCN1CCc2ccccc2C1 | µM | 2.13 |
| COc1cc(/C=C/C(=O)N2CCC(Cc3ccccc3)CC2)ccc1OCCCCCCN1CCN(c2ncccn2)CC1 | µM | 13.4 |
| COc1cc(/C=C/C(=O)N2CCC(Cc3ccccc3)CC2)ccc1OCCCN1CCN(Cc2ccccc2)CC1 | µM | 8.4 |
| COc1cc(/C=C/C(=O)N2CCC(Cc3ccccc3)CC2)ccc1OCCCCCCN1CCN(c2ccccn2)CC1 | µM | 15.6 |

----------
- system_tested: Cholinesterase (Equus caballus)
- Sequence (P81908 whole entry): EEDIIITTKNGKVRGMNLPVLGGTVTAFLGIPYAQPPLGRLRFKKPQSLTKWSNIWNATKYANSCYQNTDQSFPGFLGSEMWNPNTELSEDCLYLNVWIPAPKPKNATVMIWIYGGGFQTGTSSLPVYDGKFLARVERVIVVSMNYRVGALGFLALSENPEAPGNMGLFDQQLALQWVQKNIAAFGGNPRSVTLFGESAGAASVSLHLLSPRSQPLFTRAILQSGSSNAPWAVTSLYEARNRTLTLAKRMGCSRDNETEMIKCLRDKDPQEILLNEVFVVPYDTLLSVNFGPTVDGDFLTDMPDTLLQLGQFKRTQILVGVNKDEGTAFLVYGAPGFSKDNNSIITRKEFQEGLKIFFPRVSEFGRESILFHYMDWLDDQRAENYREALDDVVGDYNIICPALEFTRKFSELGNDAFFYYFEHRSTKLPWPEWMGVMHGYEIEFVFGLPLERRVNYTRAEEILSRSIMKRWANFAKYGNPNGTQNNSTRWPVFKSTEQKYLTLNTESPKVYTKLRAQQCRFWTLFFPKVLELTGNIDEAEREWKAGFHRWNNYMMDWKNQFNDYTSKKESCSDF
- protocol_summary: Inhibition of equine serum BuChE using butyrylthiocholine chloride as substrate measured after 15 mins by Ellman's method
pIC50: −log10 of the molar value.

| sample_smiles | pIC50 |
| --- | --- |
| COc1cc(/C=C/C(=O)N2CCC(Cc3ccccc3)CC2)ccc1OCCCCCN1CCN(c2ccccn2)CC1 | 5.82 |
| COc1cc(/C=C/C(=O)N2CCC(Cc3ccccc3)CC2)ccc1OCCCN1CCN(c2ncccn2)CC1 | 5.29 |
| COc1cc(/C=C/C(=O)N2CCC(Cc3ccccc3)CC2)ccc1OCCCN1CCN(Cc2ccccc2)CC1 | 5.91 |
| COc1cc(/C=C/C(=O)N2CCC(Cc3ccccc3)CC2)ccc1OCCCCN1CCN(c2ccccn2)CC1 | 5.79 |
| COc1cc(/C=C/C(=O)N2CCC(Cc3ccccc3)CC2)ccc1O | 5.24 |

----------
- system_tested: Amyloid-beta precursor protein (Homo sapiens)
- protocol_summary: Inhibition of amyloid beta (1 to 42) (unknown origin) self-aggregation at 25 uM after 24 hrs by thioflavin-T fluorescence assay relative to control

| sample_smiles | inhibition, % |
| --- | --- |
| COc1cc(/C=C/C(=O)N2CCC(Cc3ccccc3)CC2)ccc1OCCCCCCN1CCN(c2ccccn2)CC1 | 49.9 |
| COc1cc(/C=C/C(=O)N2CCC(Cc3ccccc3)CC2)ccc1OCCCCN1CCc2ccccc2C1 | 50.8 |
| COc1cc(/C=C/C(=O)N2CCC(Cc3ccccc3)CC2)ccc1OCCCCCCN1CCN(Cc2ccccc2)CC1 | 51.1 |
| COc1cc(/C=C/C(=O)N2CCC(Cc3ccccc3)CC2)ccc1OCCCCCN1CCN(c2ccccn2)CC1 | 51.5 |
| COc1cc(/C=C/C(=O)N2CCC(Cc3ccccc3)CC2)ccc1OCCCCCN1CCc2ccccc2C1 | 50.7 |
| COc1cc(/C=C/C(=O)N2CCC(Cc3ccccc3)CC2)ccc1OCCCN1CCN(Cc2ccccc2)CC1 | 50.3 |
| COc1cc(/C=C/C(=O)N2CCC(Cc3ccccc3)CC2)ccc1OCCCCN1CCN(c2ccccn2)CC1 | 49.8 |

Cited source: ChEMBL document CHEMBL4011587
